Listed sequences paired with reported Tm
- test.summary: melting temperature; fluorescence melt of hairpins on a sequencing array, two-state fit, raised by 9.35 °C to match UV melts
- condition: sodium 0.088 M
measurement.kind: Tm (°C)

seq.text	measurement.kind	value
GCGAACAATCGC ((((....))))	Tm	39.9
GAGATCGGAAACAATCTC (((((.(....).)))))	Tm	32.5
CGCGGAAGATTCCGCG ((((((....))))))	Tm	68.9
CGATCCGGAAACGGTCG (((.(((....))))))	Tm	50.5
GTCTAGGCGAAAGCCGAC (((..(((....))))))	Tm	44.5
GCTCGGCGAAAGCACAGC (((..((....))..)))	Tm	51.2

###

- test.summary: melting temperature; fluorescence melt of hairpins on a sequencing array, two-state fit, raised by 9.35 °C to match UV melts
- condition: sodium 0.088 M

seq.text	Tm
GGGAACGAAAGTTATCCC ((((((....)))..)))	36.6 °C
GCGGTTGGAAACGATCGC (((.(.(....).).)))	45.3 °C
CGACTCCGGAAACGGTCG (((..(((....))))))	38.4 °C
GATCCCACGGGGGATC ((((((....))))))	61.3 °C
GCAGTCGAAAGACCATGC ((((((....)))..)))	35.1 °C
GTAGTCACGAAAGTGTAC (((..(((....))))))	30.5 °C

###

- test.summary: melting temperature; fluorescence melt of hairpins on a sequencing array, two-state fit, raised by 9.35 °C to match UV melts
- condition: sodium 0.088 M
Recorded measurements of Tm, one per entry
measurement.kind: Tm (°C)

seq.text	unit.of.measurement	value
GAGTTTGGAAACGAACTC (((((.(....).)))))	°C	47.1
GAATCAGGAAACCGATTC (((((.(....).)))))	°C	37.8
GACTGGGGAAACTCGGTC (((.(.(....).).)))	°C	38.5
GCCAGAGGAAACTCTGGC (((((((....)))))))	°C	69.1
GCGATCTATCGC ((((....))))	°C	55.5
GATCAGGGCCTGATC ((((((...))))))	°C	53
GCCGTCACGAAAGTGGGC (((..(((....))))))	°C	48.5
GCTAAGCGAAAGCTCCGC ((..(((....)))..))	°C	26.9
GCGGGTGGAAACACCCAC (.(((((....))))).)	°C	48.7
GGCCATGGAAACGTGGCC (((((.(....).)))))	°C	62
GATCGGACCACCGATC ((((((....))))))	°C	56.9
GGTGGCGAAAGCCCCACC ((((((....)))..)))	°C	49.8
GCTAATACGAAAGTAAGC (((..(((....))))))	°C	29.5
GCCACGGGAAACCATGGC ((((.((....)).))))	°C	48.6
GATCGCTAAAGCGATC ((((((....))))))	°C	67.1
GGACGCGAAAGCGAGTCC ((((((....)))..)))	°C	55.4
GCTTCCGAAAGGACAAGC ((((((....)))..)))	°C	38.5
GATCAACGTGTTGATC ((((((....))))))	°C	57.4
GTTTTCGAAAGAAAAC ((((((....))))))	°C	57.4
GATCGGCACGCCGATC ((((((....))))))	°C	67.8
GACCTAGCGAAAGCTGTC (((..(((....))))))	°C	33
GCAGCGGGAAACCGCCGC ((.((((....)))).))	°C	55.2
GCTCATCGAAAGATCAGC (((.(((....))).)))	°C	34.7
GCCCCTGCGAAAGCAGGC (((..(((....))))))	°C	42.4
GATTGAGAAATCAATC ((((((....))))))	°C	45.5

###

- test.summary: melting temperature; fluorescence melt of hairpins on a sequencing array, two-state fit, raised by 9.35 °C to match UV melts
- condition: sodium 0.088 M
Overview of reported Tm across a group of sequences:
measurement.kind: Tm

seq.text	measurement.kind	value
GTATGGCGAAAGCCGTAC (((.(((....))).)))	Tm	56.9 °C
GCGGAGCGAAAGCTTAGC ((..(((....)))..))	Tm	52.3 °C
GCAACGCGAAAGCATCGC ((.(.((....)).).))	Tm	39.2 °C
GGTACTGGAAACAGTATC (.(((((....))))).)	Tm	44.4 °C
GACTTACGAAAGTATGTC (((.(((....))).)))	Tm	47.8 °C
GACTTCCGAAAGGACGTC (((.(((....))).)))	Tm	48.9 °C
GGATTCCGAAAGGACTCC (((.(((....))).)))	Tm	47 °C
GATCCACGCTTGGATC ((((((....))))))	Tm	52.5 °C
GCGAAACGAAAGTTGCGC (((.(((....))).)))	Tm	65.7 °C
GTGACGCGAAAGCGCCAC (((.(((....))).)))	Tm	68 °C
GCACAGGGAAACCTGCGC ((.((((....)))).))	Tm	51.8 °C
GCACGTCGAAAGACCTGC (((.(((....))).)))	Tm	45.2 °C

###

- test.summary: folding enthalpy; higher = less favourable; fluorescence melt of hairpins on a sequencing array, two-state fit
- condition: sodium 0.088 M

seq.text	folding enthalpy [kcal/mol]
GGTGATGGAAACGTTACC (((.(.(....).).)))	-19.2
CGCAGCGGAAACGCCGCG (((.(((....))).)))	-34
GCTGCTGGAAACAGTAGC (((.(((....))).)))	-43.1
GCTGGGGGAAACCCCAAC (.(((((....))))).)	-13.2
GCAAGGGGAAACCCCTGC (((.(((....))).)))	-27.4
GATCCTTGGAAGGATC ((((((....))))))	-32.1
GATGTTGGAAACAGCATC ((((.((....)).))))	-25
GCATACGAAAGTAGTTGC ((((((....)))..)))	-17.5
CGCACCGGAAACGGCGCG (((.(((....))).)))	-52.1
GATCTGCTGCAGATC ((((((...))))))	-41.4
GTGCACGAAAGTGTCAC ((((((....))).)))	-22.3
GATCTGGCAGCAGATC ((((((....))))))	-41.8
GAAGAGCGAAAGCTTTC (((.(((....))))))	-12.2
GTGTACCGAAAGGTCAC (((.(((....))))))	-30.5
GATCGATCGTTCGATC ((((((....))))))	-36
GATCTTCCGAAAGATC ((((((....))))))	-29.7
GCAGTCGAAAGACCATGC ((((((....)))..)))	-16.2
GGCTCAGGAAACTGAACC ((.((((....)))).))	-32.3
GATCCCTGCGGGATC ((((((...))))))	-35.8
GGCTCTGCGAAAGCAGCC (((..(((....))))))	-9.66
GATCCGAACCGGATC ((((((...))))))	-40.2
GTATCTCGAAAGAGTTAC (((.(((....))).)))	-26.6
GTATGACCGAAAGGTTAC (((..(((....))))))	-10.3
GCAGAAGGAAACCTCTGC (((((.(....).)))))	-28.2
GCTACGGGAAACCGCAGC (((.(((....))).)))	-41.7
GATCACTTGTGTGATC ((((((....))))))	-40.4
GGGGTAGGAAACTACTCC ((.((((....)))).))	-30.1
GATCCCAAATGGGATC ((((((....))))))	-36.4
GTACTTACGAAAGTATAC (((..(((....))))))	-6.58
GCATTCGAAAGAAATGC ((((((....))).)))	-30.4
GATCGACGAAAGTCATC (((.(((....))))))	-12.7
GATCGAAGCATCGATC ((((((....))))))	-35.8
GAGGGAGCGAAAGCTCTC (((..(((....))))))	-9.38
GGCCTGCGAAAGCAGCC (((.(((....))))))	-15.8
GCACCTCGAAAGAGTTGC (((.(((....))).)))	-28.1
GCATGGCGAAAGCGAAGC ((.(.((....)).).))	-11.7
GCTGGACGAAAGTCGAGC (((.(((....))).)))	-44.2
GGATCGCGAAAGCGTTCC (((.(((....))).)))	-27.7
GATATAGGAAACTATATC (((((((....)))))))	-33.4
GGATCGGGAAACCGGTCC (((.(((....))).)))	-50.4
GTTGAGGAAACTCAAC ((((((....))))))	-32.2
GATCCCAAAGGGATC ((((((...))))))	-35.4
GCCGGGCGAAAGCCGCGC ((..(((....)))..))	-15.2
GTAGGGGGAAACCCCTAC (((((((....)))))))	-37.4
GATCGTTTCACGATC ((((((...))))))	-33.5
GGCTGAGAAATCAGCC ((((((....))))))	-34.3
GATCACAGTGTGATC ((((((...))))))	-39.9
GTTCTGTCGAAAGACAAC (((..(((....))))))	-9.57
GCACCTGGAAACGGGTGC (((((.(....).)))))	-48
GATCCTTATCAGGATC ((((((....))))))	-33.2
